Tested on: human cytomegalovirus
Test: Cytomegalovirus inhibition ELISA assay
Format: cell-based
Settings: HCMV
Strand notation (5' to 3'): a small letter for the sugar, then the base; units joined by * are phosphorothioate-linked, units joined directly phosphodiester-linked; [ ] holds rarer units or linkages, { } end groups; capitals alone tell only the bases. d = 2'-deoxy (DNA)
The following substances are shown together with reported pIC50 values.
pIC50 field: float, defined as -log10 of concentration (mol/L).

| SUBSTANCE | pIC50 |
| --- | --- |
| ISIS 5366: TTGGGGTTGGGGTTGGGGTTG GGGG, P = S, SEQ ID NO 33 (TTGGGGTTGGGGTTGGGGTTGGGGG; all phosphorothioate, sugars by position not given here) | 7.00 |
| ISIS 4560: GGGG C GGGG C GGGG C GGGG C G, P = S, SEQ ID NO 42 (dG*dG*dG*dG*dC*dG*dG*dG*dG*dC*dG*dG*dG*dG*dC*dG*dG*dG*dG*dC*dG) | 6.82 |

Let's switch to this substance now.
Exam item: Which pIC50 is reported for this substance? ISIS 4717: GG GGT TGG GG, P = S, SEQ ID NO 26 (GGGGTTGGGG; all phosphorothioate, sugars by position not given here)
Marked response: 6.00
